- method-description: Metabolic stability in human liver microsomes assessed as bioavailability
- Format: ADME, Microsome
- experimental-context: read-out: Metabolic Bioavailability
readout-name: bioavailability

Request: Determine its reported bioavailability: COc1ccc(CCN2C=CC=C3C2=Nc2ccccc2OS3(=O)=O)cc1
Response: < 12%

* * *

- method-description: Metabolic stability in mouse liver microsomes assessed as bioavailability
- Format: ADME, Microsome
- experimental-context: read-out: Metabolic Bioavailability
readout-name: bioavailability

Request: Determine its reported bioavailability: COc1ccc(CCN2C=CC=C3C2=Nc2ccccc2OS3(=O)=O)cc1
Response: < 12%
